experiment: NCI Yeast Anticancer Drug Screen. Data for the rad50 strain (AID 155);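 also: 0% = growth of vehicle-only cultures of the same strain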; settings: S. cerevisiae rad50 strain growth inhibition; at 50.0 µM
This is part of a sample that, as a whole, favours compounds with a hit. Of some 79,000 tested, about 15% had one in any assay. The source made the active and inactive calls. Rule as the data show it: active = growth inhibition above about 70%; inactive = the rest.
Output constraint: value belongs to active, inactive

Answered cases to consult:
OC1CCCCCCCCCCC1C(O)(C(F)(F)F)C(F)(F)F (configuration not stated) :: active
Cc1ccc(S(=O)(=O)N/N=C/c2cc([N+](=O)[O-])cc(I)c2O)cc1 :: inactive
CCCCC[N+](CCCCC)(CCCCC)CCCCC :: inactive
Nc1cc2[nH]c(=O)c3cc([N+](=O)[O-])ccc3c2cc1Cl :: inactive
CC(O)CNCc1ccc(N(C)C)cc1 (configuration not stated) :: inactive
CCN(C(=O)CCl)c1ccccc1 :: inactive

Consider the additional compound presented here.
Hello, I am checking results. What call was entered for `CCOC(=O)CC[C@H](NC(=O)c1[nH]cnc1/N=N/N(C)C)C(=O)OCC` ?
inactive

----------
assay: NCI Yeast Anticancer Drug Screen. Data for the mec2-1 strain (AID 157); details: S. cerevisiae mec2-1 strain, at 50.0 µM, stronger effect = higher value
About 79,000 compounds went through this panel and 15% of them were active in at least one assay; those are over-represented in the sample as a whole.
Here, each record is paired with measured growth inhibition data.
Answer in %, number only, no unit symbol.

Reference set (6 entries):
CC(=O)O[C@]12CCCCCCC1C1(O)C(O)CCC[C@H]12 (some centres undefined) :: -1.95
CCCC1C(C#N)(C#N)C(C#N)=C(N)C1(C)C(C)=O (centres undefined) :: 6.8
CCCCCCCCCCCCCCCCC(C)=O :: 20.6
O=c1oc2ccc(Cl)cc2n1CN1CCOCC1 :: -26.9
Cc1ccc(S(=O)(=O)N2CCCC(O)c3ccccc32)cc1 (centres undefined) :: -15.8
COc1ccc(-c2cc(=O)c3c(O)cc(O)c(-c4cc(-c5cc(=O)c6c(O)cc(OC)cc6o5)ccc4OC)c3o2)cc1 :: 17.1

The record that follows has no growth inhibition shown yet.
For `Cn1c(=O)oc2cc([N+](=O)[O-])c(Cl)cc21` , what is its reported growth inhibition?
4.25

----------
Here, each record is paired with measured growth inhibition data.
test: NCI Yeast Anticancer Drug Screen. Data for the sgs1 mgt1 strain (AID 161);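 also: 0% = growth of cultures given vehicle only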; conditions: S. cerevisiae sgs1 mgt1 strain, at 50.0 µM, stronger effect = higher value
The panel holds about 79,000 compounds, 15% with a hit somewhere; the sample as a whole holds those more often.
Answer in %, number only, no unit symbol.

Reference set (5 entries):
BrC1=CCC23CC=C(Br)[C@H]4CC2(COC3)C[C@@H]1O4 (stereo partly drawn) :: 0.6
O=C(O)CCc1c[nH]c(=S)[nH]1 :: -5.85
NC(=NCc1ccncc1)N/N=C\c1ccnc2ccccc12 :: 7.75
CC(CCc1ccccc1)NC(=O)c1ccccc1 (stereo not drawn) :: -1.45
CS(=O)(=O)c1[nH]nc2[nH]c(=O)[nH]c(=O)c12 :: -26.5

For CCCC/C=C(\C)C(C)(C#N)C(=O)OCC (stereo not drawn) , what is its reported growth inhibition?
-4.5

For `Clc1ccc(Cl)c(NNc2cc(Cl)ccc2Cl)c1` , what is its reported growth inhibition?
-3.9

For `O=C(O)c1cc(=O)[nH]c(SCc2ccccc2)n1` , what is its reported growth inhibition?
-28.5

For `C[N+](C)(C[Si](C)(C)C)C1CCCCCCCCCCC1` , what is its reported growth inhibition?
-8.8

For CC(Sc1nc2ccc(Cl)cc2[nH]1)C(=O)O (stereo not drawn) , what is its reported growth inhibition?
-0.9

For `CCc1ccccc1NC(=O)C1=C(C)NC(C)=C(C(=O)Nc2ccccc2CC)C1c1ccc2c(c1)OCO2` , what is its reported growth inhibition?
-2.4

----------
assay: NCI Yeast Anticancer Drug Screen. Data for the cln2 rad14 strain (AID 165);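 also: 0% = growth equal to vehicle treated cultures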; settings: S. cerevisiae cln2 rad14 strain, at 50.0 µM, stronger effect = higher value
Compounds without any hit were thinned out: in the full panel of roughly 79,000, 15% have a hit.
Here, each record is paired with measured growth inhibition data.
Answer in %, number only, no unit symbol.

Reference set (3 entries):
CCCOC1OC(CS(=O)(=O)O)C(OC(C)=O)C(OC(C)=O)C1OC(C)=O (stereo not given) :: 18
c1ccc([P+](Cc2ccc(C[P+](c3ccccc3)(c3ccccc3)c3ccccc3)cc2)(c2ccccc2)c2ccccc2)cc1 :: 40.5
O=C(O)CCC(NC(=O)c1ccc(Nc2nc3ccc(C(F)(F)F)cc3nc2-c2ccccc2)cc1)C(=O)O (stereo not given) :: -8.75

For `Nc1cnc2ccccc2c1` , what is its reported growth inhibition?
-46.5

For CC(COc1ccccc1)N(CCCl)Cc1ccccc1 (stereo not given) , what is its reported growth inhibition?
-43.3

For COC1(OC)C(c2ccco2)C(C#N)(C#N)C1(OC)OC (stereo not given) , what is its reported growth inhibition?
-38

For O=C1CCCCC1CN1CCCC1 (stereo not given) , what is its reported growth inhibition?
21.4

For c1ccc(C2SCc3nc4cc5ccccc5cc4n32)cc1 (stereo not given) , what is its reported growth inhibition?
12

For CC(=O)c1cccc(NC(=O)C(=O)C(C2OC(=O)c3ccccc32)[N+](=O)[O-])c1 (stereo not given) , what is its reported growth inhibition?
11.4

For `O=C(O)CCSc1ccccc1[N+](=O)[O-]` , what is its reported growth inhibition?
-10.3

----------
assay: NCI Yeast Anticancer Drug Screen. Data for the sgs1 mgt1 strain (AID 161);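 also: 0% = growth of cultures given vehicle only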; settings: S. cerevisiae sgs1 mgt1 strain, at 50.0 µM, stronger effect = higher value
Compounds without any hit were thinned out: in the full panel of roughly 79,000, 15% have a hit. The source made the active and inactive calls. No stated cut-off is given here; in the data, active means growth inhibition above about 70%; inactive means the rest.
observable: growth inhibition

Reference set (9 entries):
CN(C)C(=O)C1C2CC3OC(=O)C1C3C2 (stereo not given) :: 6.2% (inactive)
O=C(OCC(OC(=O)c1ccccc1)C(OC(=O)c1ccccc1)C(COC(=O)c1ccccc1)OC(=O)c1ccccc1)c1ccccc1 (stereo not given) :: 56.9% (inactive)
CCCC/C=C/C1C=CC(CCCCCCCC(=O)OCC)C(C(=O)OCC)C1 (stereo not given) (tested in a mixture with another compound) :: 20% (inactive)
Cc1nn(C(=O)c2ccc(Cl)cc2)c2c1C(c1ccccc1O)SC(N)=N2 (stereo not given) :: -30.1% (inactive)
O=C1OC(c2cccc(Cl)c2)=N/C1=C\c1ccccc1 :: 13.5% (inactive)
O=S(=O)(O)CCCCO :: 0.9% (inactive)
COC(=Nc1cccc2ccccc12)Nc1cccc2ccccc12 :: -4.35% (inactive)
ONC1=Nc2cc(Cl)ccc2C(=S)N2CSCC12 (stereo not given) :: -0.25% (inactive)
O=C(Nc1cccc2c1C(=O)c1cc(Cl)ccc1C2=O)c1ccccc1 :: 4% (inactive)

The record that follows has no growth inhibition shown yet.
For COC(=O)CC(C)N(c1ccc(OC)cc1)S(=O)(=O)c1ccc(C)cc1 (stereo not given) , what is its reported growth inhibition?
14.3% (inactive)

----------
assay: NCI Yeast Anticancer Drug Screen. Data for the mec2-1 strain (AID 157); details: S. cerevisiae mec2-1 strain, at 50.0 µM, stronger effect = higher value
The panel holds about 79,000 compounds, 15% with a hit somewhere; the sample as a whole holds those more often.
Here, each record is paired with measured growth inhibition data.
Answer in %, number only, no unit symbol.

Reference set (8 entries):
N=c1nc(N)ss1 :: 5.85
CCN(CC)CCN(C(=Nc1ccccc1)N1CCOCC1)c1ccccc1 :: -40.5
CCC(C(=O)OC)C1CCCCC1 (centres undefined) :: -27.8
CCc1cccc(NC(=O)c2cc(/C=C/c3ccccc3)[nH]c(=S)n2)c1 :: -19.4
O=C(CCCn1ccnc1[N+](=O)[O-])NCCn1ccnc1[N+](=O)[O-] :: 9.35
COc1ccc(OC)c(/C=C2/C(=O)N(c3ccccc3)N=C2C)c1 :: -1.25
Cc1occc1C(=S)Nc1ccc(Cl)c(/C=N/OC2CCCC2)c1 :: 26.1
O=C(O)C(Br)C(Br)C(=O)Nc1ccc(Br)cc1 (centres undefined) :: -24.4

The record that follows has no growth inhibition shown yet.
For CC(Br)C(=O)Nc1ccc(C(=O)O)c(O)c1 (centres undefined) , what is its reported growth inhibition?
-32.8

----------
Here, each record is paired with measured growth inhibition data.
experiment: NCI Yeast Anticancer Drug Screen. Data for the mec2-1 strain (AID 157); settings: S. cerevisiae mec2-1 strain, at 50.0 µM, stronger effect = higher value
This is part of a sample that, as a whole, favours compounds with a hit. Of some 79,000 tested, about 15% had one in any assay.
Answer in %, number only, no unit symbol.

Reference set (3 entries):
CC1c2c(ccc3c2CCC=C3)CCC1CC1=CCCc2ccc3ccccc3c21 (centres undefined) :: -1.6
CSc1cc(C)c(C#N)c(SC)n1 :: -32.1
Cc1ccc[n+]([O-])c1Cl :: 14.2

The record that follows has no growth inhibition shown yet.
For COc1ccc2c(c1OC)C1CCCCC1SCC2=O (centres undefined) , what is its reported growth inhibition?
6.85
